test system: BT-549 breast; test: NCI tumour cell line growth inhibition, 48 h
Kindly supply the reported TGI values for the records listed here.

Worked examples follow.
INSERT INTO assay_data (compound, result) VALUES
  ('C/C=C(\C)C(=O)O[C@H]1C=CC(=O)O[C@H]1CCC(=O)[C@H](C)O', '36.8 µM'),
  ('CC(=O)N(C(C)=O)c1ncc(-n2nc(-c3ccccc3)cc2-c2ccccc2)c(-c2ccccc2)n1', '> 10 µM'),
  ('CCOC(=O)c1ccc(NC(=O)Oc2ccc3c(C)cc(=O)oc3c2)cc1', '89.5 µM'),
  ('O=C(O)COc1ccc2c(=O)c3sc4c(=O)c5ccccc5c(=O)c4c3c(=O)c2c1', '21.8 µM'),
  ('N#C[C@H](c1ccccn1)c1nc2ccccc2nc1Cl', '> 100 µM');

Please state TGI for every compound in the list that follows.
1. COC(=O)/C=C(\C(=O)OC)C1C(=O)Oc2c(C)c(=O)c3ccccc3n21 (stereo not given)
2. C[n+]1c2ccc(Cl)cc2nc2cc(-c3ccccc3)ccc21
3. C(=NCCN1CCOCC1)=NC1CCCCC1
4. CC(=O)OC1COC(Oc2c(C)c3c4c(c2O)[C@@H](C)CC[C@@H]4[C@@H](C)C[C@H]3C=C(C)C)C(O)C1OC(C)=O (stereo not given in full)
5. c1ccc(N=C(N2CCCC2)N(CCN2CCCC2)c2ccccc2)cc1

**A:**
["> 100 µM", "25.5 µM", "> 100 µM", "69.7 µM", "84.5 µM"]

###

system: RXF 393 renal; assay: NCI tumour cell line growth inhibition, 48 h; in the data active = GI50 below about 0.43 µM; inactive = the rest
Return exactly one item of true (1) for active, false (0) for inactive

Check out these entries, answers already filled in.
INSERT INTO measurements (compound, target_desc, class_label) VALUES
  ('COc1cc(C(=O)N2CCN(C=O)C2=S)cc(OC)c1OC', 'RXF 393 renal', 'false (0)'),
  ('Cn1cc(C2=C(c3ccc(N)cc3)C(=O)NC2=O)c2ccccc21', 'RXF 393 renal', 'false (0)'),
  ('COc1cc(OCc2cccc(-c3ccc(C(O)c4nccs4)cc3)c2C)cc(OC)c1C=O (centres undefined)', 'RXF 393 renal', 'false (0)'),
  ('NC(=O)/C=C/C(=O)c1c(Cl)cccc1Cl', 'RXF 393 renal', 'false (0)'),
  ('CC1(C)N=C(N)N=C(N)N1c1ccc(CCCCc2ccc(Cl)cc2S(=O)(=O)F)c(Cl)c1', 'RXF 393 renal', 'false (0)');

**Q:** Please indicate how the test categorized CCN1CCN(C(=O)[C@@]2(C)CC[C@]3(C)CC[C@]4(C)C(=CC(=O)[C@@H]5[C@@]6(C)CC[C@H](OC7C[C@@H](O)[C@@H](O)C(C)O7)C(C)(C)[C@@H]6CC[C@]54C)[C@@H]3C2)CC1 (some centres undefined) .
**A:** false (0)

**Q:** Hi team, can someone confirm the assay call for CC(=O)Nc1ccc(S(=O)(=O)N2C(=O)CCC2C(=O)Nc2ccc(Br)cc2)cc1 (centres undefined) ?
**A:** false (0)

**Q:** Record lookup: outcome of this test for COC(=O)C[C@](O)(CCCC(C)(C)O)C(=O)O[C@@H]1C(OC)=C[C@]23CCCN2CCc2cc4c(cc2[C@H]13)OCO4 ?
**A:** true (1)

**Q:** Fill in: this test's call for COc1ccc(Sc2[nH]c(C(C)=O)c3ccccc23)cc1 is ___
**A:** false (0)

###

test system: U251 CNS; test: NCI tumour cell line growth inhibition, 48 h
Assay Readout: TGI

INSERT INTO assay_data (compound, assay_readout, result) VALUES
  ('COc1cc(OC)c2nc(C)c(CCCl)c(Cl)c2c1', 'TGI', '> 100 µM'),
  ('O=C1c2ccccc2C(=O)c2c(NCC(O)CO)ccc(NCC(O)CO)c21 (stereo not given)', 'TGI', '> 100 µM'),
  ('CC/C=C\C[C@H](O)C/C=C1/C(=O)C(Cl)=C[C@@H]1C/C=C\CCCC(=O)OC', 'TGI', '1.39 µM'),
  ('O=C1Nc2cccc(Cl)c2/C1=C\c1c(Cl)nc2n1CCS2', 'TGI', '> 100 µM'),
  ('C=C(Cl)C(=CCl)CCC(Br)C(C)(C)Cl (mixture of isomers)', 'TGI', '> 10 µM'),
  ('CCOC(=O)C(C#N)C1=CC(=O)C(=O)c2ccc(OC)cc21 (stereo not given)', 'TGI', '72.5 µM');

Go through the list and state TGI for each entry.
1. O=[N+]([O-])C[C@@]12O[C@]3(O)C4C5CC(C6C5C3C61)C42 (stereo not given in full)
2. Cc1c2n(c(=O)[nH]c1=O)C1OC(CO)C(O2)C1O (stereo not given)
3. CN1CC(=O)N2Cc3ccccc3-n3cccc3C2C1 (stereo not given)
4. CNCc1ccccc1-c1csc([C@@H](C)Nc2nc(C)nc3cc(OC)c(OC)cc23)c1

**A:**
> 100 µM
> 100 µM
> 100 µM
3 µM

###

system: HCT-116 colon; experiment: NCI tumour cell line growth inhibition, 48 h
Classification field: true = TGI at or over 2 µM; false = TGI under 2 µM.

INSERT INTO results (compound, class_label) VALUES
  ('CC(=O)OC1COC(Oc2c(C)c3c4c(c2O)[C@@H](C)CC[C@@H]4[C@@H](C)C[C@H]3C=C(C)C)C(O)C1OC(C)=O (stereo not given in full)', 'true'),
  ('CC[As](CC)SC[C@H](C)C(=O)N1CCC[C@H]1C(=O)O', 'false'),
  ('O=C1c2cccc3c2C(=O)c2c(cccc21)OCCOCCOCCOCCO3', 'true'),
  ('CCCNC(=O)NNC(=O)c1c[nH]c2nc(C)ccc2c1=O', 'true'),
  ('COC(=O)C1=C(C(=O)OC)N(c2ccc(OC)cc2[N+](=O)[O-])C(c2ccc(C)cc2)=CC1c1ccc(OC)cc1OC (stereo not given)', 'true'),
  ('O=C1C2SC34c5c2c2ccccc2n5CCC3CCCN14 (stereo not given)', 'true'),
  ('CO/N=C(\C)c1ccc(Nc2nc3ccccc3c3occc23)cc1', 'true'),
  ('COc1ccc(/C=C\[N+](=O)[O-])cc1OC', 'true');

**Q:** // inclusive: TGI at least 2 µM? input: Cc1n(Cc2ccccc2)c2c([n+]1C)C(=O)c1ccccc1C2=O
**A:** false

###

For each of the compounds below, state its GI50.
system: DU-145 prostate; assay: NCI tumour cell line growth inhibition, 48 h

Worked set:
INSERT INTO results (compound, assay_readout, result) VALUES
  ('Nc1ccc([N+](=O)[O-])cc1N=C/C=C/c1ccccc1', 'GI50', '13.9 µM'),
  ('CO/N=C(/C)c1cccc(Nc2cc(-n3nnc4ccccc43)nc3ccccc23)c1', 'GI50', '40.4 µM'),
  ('COc1cc(-c2oc(=O)ccc2C#Cc2ccccn2)cc(OC)c1OC', 'GI50', '3.48 µM'),
  ('COc1cc(OCc2cccc(-c3ccc(C(O)c4nccs4)cc3)c2C)cc(OC)c1C=O (stereo not given)', 'GI50', '2.81 µM');

Now examine the next entry.
**Q:** So what does the record say about GI50 for COc1cccc(CC(C)=C(c2ccc(OCCN(C)C)cc2)c2ccc(OCCN(C)C)cc2)c1 ?
**A:** 3.86 µM

###

test system: SK-OV-3 ovarian; experiment: NCI tumour cell line growth inhibition, 48 h; in the data active = GI50 below about 0.43 µM; inactive = the rest
Write down one outcome, taken from label 1 (active), label 0 (inactive)

INSERT INTO measurements (molecule, class_label) VALUES
  ('COc1ccccc1/C=N\N/C(N)=N\N=C\c1ccccc1OC', 'label 0');

**Q:** Please share the test call associated with CSC1=Nc2c(c(C)c(C)n2COC(CO)CO)C2=NC(=O)C(C)N12 (stereo not drawn) .
**A:** label 0

**Q:** Recorded test outcome, item O=C(O)COc1ccc2c(=O)c3sc4c(=O)c5ccccc5c(=O)c4c3c(=O)c2c1
**A:** label 0

###

Assignment: determine reported GI50 for the given compounds.
tested on: EKVX NSCLC; experiment: NCI tumour cell line growth inhibition, 48 h

INSERT INTO results (compound, assay_readout, result) VALUES
  ('Cn1c(I)c(C#CCO[Si](C)(C)C(C)(C)C)c(=O)[nH]c1=O', 'GI50', '17.5 µM');

Please go through the list and note GI50 for each compound.
1. Cc1ccc(SC2c3ccc(C)cc3Oc3nc(N)c(C#N)c(N)c32)cc1 (stereo unspecified)
2. COc1ccc(OC)c2c1[nH]c(=O)c1c3ccccc3cn21

**A:**
["1.59 µM", "1.34 µM"]

Each of the following entries comes with a recorded value; kindly state GI50 for each.
1. COc1ccc(/C=C\[N+](=O)[O-])cc1OC
2. CN1CCN(C2CCN(C(=O)Nc3cc(Oc4ccc(NC(=O)C5(C(=O)Nc6ccc(F)cc6)CC5)c(F)c4)ccn3)CC2)CC1

**A:**
1: 15.6 µM; 2: > 1.99 µM
